In this section, each of the compounds is paired with its reported IC50.
Protein target, amino acids: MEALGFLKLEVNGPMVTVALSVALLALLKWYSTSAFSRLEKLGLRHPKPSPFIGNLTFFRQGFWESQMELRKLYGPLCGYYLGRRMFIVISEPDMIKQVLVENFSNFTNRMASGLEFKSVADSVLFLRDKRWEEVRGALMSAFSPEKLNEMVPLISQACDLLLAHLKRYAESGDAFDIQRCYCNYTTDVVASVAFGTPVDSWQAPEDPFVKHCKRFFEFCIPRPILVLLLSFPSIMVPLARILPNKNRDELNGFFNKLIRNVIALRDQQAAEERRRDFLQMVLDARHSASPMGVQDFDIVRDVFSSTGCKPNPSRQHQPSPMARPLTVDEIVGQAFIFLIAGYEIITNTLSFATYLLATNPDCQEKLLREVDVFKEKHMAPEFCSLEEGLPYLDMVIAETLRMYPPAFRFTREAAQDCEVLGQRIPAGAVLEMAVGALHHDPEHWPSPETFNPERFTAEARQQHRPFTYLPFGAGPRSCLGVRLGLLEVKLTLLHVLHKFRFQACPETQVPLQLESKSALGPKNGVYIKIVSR
Endpoint Label: IC50 (nM)

[
  {
    "Structure Smiles": "CCn1cc(Cn2ccnc2)c2ccccc21",
    "Experimental Result": 8.4
  },
  {
    "Structure Smiles": "O=C(O)CCn1c(C2CC2)c(Cn2ccnc2)c2ccccc21",
    "Experimental Result": 4.9
  },
  {
    "Structure Smiles": "COc1ccc2c(c1)c(Cn1ccnc1)cn2CCC(=O)O",
    "Experimental Result": 43
  },
  {
    "Structure Smiles": "c1ccc2c(Cn3ccnc3)c[nH]c2c1",
    "Experimental Result": 25
  },
  {
    "Structure Smiles": "Cc1c(Cn2ccnc2)c2ccccc2n1CCC(=O)O",
    "Experimental Result": 28
  },
  {
    "Structure Smiles": "Cc1c(Cn2ccnc2)c2ccccc2n1/C=C/C(=O)O",
    "Experimental Result": 70
  },
  {
    "Structure Smiles": "O=C(O)Cn1cc(Cn2ccnc2)c2ccccc21",
    "Experimental Result": 30
  }
]
